Reference for the values: patent US8952149B2

Test: Plasma concentrations in infected mice after an oral dose (LC/MS/MS)
Assay type: in vivo
Conditions: CF-1, mouse, plasma; infected mice (n = 3), oral 100 mg/kg, 24 hours
The entries below come with measured concentration at 24 h values attached.
value type: concentration at 24 h (ng/mL)

molecule	reported
CCc1coc(-c2cc3c(c(F)c2F)N2C[C@H](C)O[C@H](C)[C@H]2C2(C3)C(=O)NC(=O)NC2=O)n1 (racemic)	2180
Cc1coc(-c2cc(F)c3c(c2)CC2(C(=O)NC(=O)NC2=O)[C@H]2[C@H](C)O[C@H](C)CN32)n1 (single isomer, unassigned)	176
Cc1ncc(-c2cc3c(cc2F)N2C[C@@H](C)O[C@@H](C)[C@@H]2C2(C3)C(=O)NC(=O)NC2=O)cn1 [Comparator Compound from the Literature, reference compound]	1400
